Each item that follows carries a reported furin cleavage Z-score.
Biological target: furin, P09958;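 further: purified furin at 1:10 enzyme:substrate in 50 mM HEPES pH 7.5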
Sequence (P09958 whole entry): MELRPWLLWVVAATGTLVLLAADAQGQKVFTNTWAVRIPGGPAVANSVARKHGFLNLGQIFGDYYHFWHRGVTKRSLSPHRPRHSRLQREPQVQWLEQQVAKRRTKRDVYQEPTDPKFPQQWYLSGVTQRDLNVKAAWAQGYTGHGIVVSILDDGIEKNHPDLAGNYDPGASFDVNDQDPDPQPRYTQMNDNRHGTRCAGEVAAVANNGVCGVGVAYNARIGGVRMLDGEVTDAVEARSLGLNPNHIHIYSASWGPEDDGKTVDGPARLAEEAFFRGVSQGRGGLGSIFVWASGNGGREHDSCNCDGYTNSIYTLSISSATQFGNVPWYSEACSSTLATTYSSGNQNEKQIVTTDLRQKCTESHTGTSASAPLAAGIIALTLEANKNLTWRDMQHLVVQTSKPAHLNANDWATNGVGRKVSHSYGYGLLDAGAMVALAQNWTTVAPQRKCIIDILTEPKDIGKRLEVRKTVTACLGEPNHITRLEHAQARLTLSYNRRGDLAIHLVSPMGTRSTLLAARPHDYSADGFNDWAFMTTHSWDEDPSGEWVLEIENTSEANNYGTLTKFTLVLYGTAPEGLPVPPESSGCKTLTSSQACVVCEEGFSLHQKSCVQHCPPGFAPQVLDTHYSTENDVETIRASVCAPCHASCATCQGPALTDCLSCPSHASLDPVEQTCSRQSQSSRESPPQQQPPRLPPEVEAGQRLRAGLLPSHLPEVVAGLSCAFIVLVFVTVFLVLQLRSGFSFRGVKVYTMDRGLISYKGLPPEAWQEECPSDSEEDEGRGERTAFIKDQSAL
Experiment: furin cleavage Z-score vs untreated control; higher = more cleavage, active = 3.5 or more, inactive = 1 or less, 8 variable residues between constant flanks
Conditions: 7.5 min
The list shows a part of the results. The hit rate among all sequences tested is not known here.
Number, no unit, nothing else.

Enquiry: Entry under review: CAIFKRKKRIAGNASASA [FS-1212] . Reported furin cleavage Z-score?
Return: 3.24

Enquiry: // furin cleavage Z-score lookup, key: CAKTNRKTRFAGNASASA [FS-345]
Return: 1.94

Enquiry: Return reported furin cleavage Z-score; argument: CARLGRQVDSAGNASASA [FS-1738]
Return: 0.0659

Enquiry: Name the reported furin cleavage Z-score value associated with the sequence CARQLRSAPPAGNASASA [FS-2758]
Return: 3.01

Enquiry: Could you tell me which furin cleavage Z-score is on file for CAQNERSYRIAGNASASA [FS-183] ?
Return: -0.223

---
Enquiry: Which measured furin cleavage Z-score value corresponds to CAKKRRATRFAGNASASA [FS-450] ?
Return: 1.73

Enquiry: Param item = CAILQRLKRIAGNASASA [FS-1346] ; retrieve measured furin cleavage Z-score.
Return: 3.62
